Reference source for all entries: patent US20060166900A1

# ASSAY TEXT: Stability indicating HPLC assay and related substances on storage (Example 3)
# Assay type: physicochemical
# MEASUREMENT SETUP: 1 month, 40° C./75% RH
ASSAY ENDPOINT: Known Related Substances HN75083 (%)
Numbers only here, please. The scale is %.

Sample records with Known Related Substances HN75083:
CN1CCC23c4c5ccc(O)c4OC2C(OC2OC(C(=O)O)C(O)C(O)C2O)C=CC3C1C5.CN1CCC23c4c5ccc(O)c4OC2C(OC2OC(C(=O)O)C(O)C(O)C2O)C=CC3C1C5.O=S(=O)(O)O (stereo not drawn) [Morphine-6-glucuronide sulphate]	0.74
CN1CCC23c4c5ccc(O)c4OC2C(OC2OC(C(=O)O)C(O)C(O)C2O)C=CC3C1C5.CN1CCC23c4c5ccc(O)c4OC2C(OC2OC(C(=O)O)C(O)C(O)C2O)C=CC3C1C5.O=C(O)C=CC(=O)O (stereo not drawn) [Morphine-6-glucuronide fumarate]	0.02

Exam item: Returns the measured Known Related Substances HN75083 for the input compound. Input: CN1CCC23c4c5ccc(O)c4OC2C(OC2OC(C(=O)O)C(O)C(O)C2O)C=CC3C1C5.O=P(O)(O)O (stereo not drawn) [Morphine-6-glucuronide phosphate]
Marked response: 0.14

* * *

# ASSAY TEXT: Stability indicating HPLC assay and related substances on storage (Example 3)
# Type: physicochemical
# MEASUREMENT SETUP: 3 months, 25° C./60% RH
ASSAY ENDPOINT: Known Related Substances HN33177 (%)
Numbers only here, please. The scale is %.

Sample records with Known Related Substances HN33177:
CN1CCC23c4c5ccc(O)c4OC2C(OC2OC(C(=O)O)C(O)C(O)C2O)C=CC3C1C5.O=P(O)(O)O (stereo not shown) [Morphine-6-glucuronide phosphate]	0.78
CN1CCC23c4c5ccc(O)c4OC2C(OC2OC(C(=O)O)C(O)C(O)C2O)C=CC3C1C5.CN1CCC23c4c5ccc(O)c4OC2C(OC2OC(C(=O)O)C(O)C(O)C2O)C=CC3C1C5.O=S(=O)(O)O (stereo not shown) [Morphine-6-glucuronide sulphate]	0.52
CN1CC[C@]23c4c5ccc(O)c4O[C@H]2[C@@H](O[C@@H]2O[C@H](C(=O)O)[C@@H](O)[C@H](O)[C@H]2O)C=C[C@H]3[C@H]1C5 [Morphine-6-glucuronide base, morphine-6-β-D-glucuronide]	0.86

# next molecule below
Exam item: Returns the measured Known Related Substances HN33177 for the input molecule. Input: CN1CC[C@]23c4c5ccc(O)c4O[C@H]2[C@@H](O[C@@H]2O[C@H](C(=O)O)[C@@H](O)[C@H](O)[C@H]2O)C=C[C@H]3[C@H]1C5.Cl [Morphine-6-glucuronide hydrochloride]
Marked response: 0.50

* * *

Examples of compounds with documented M6G Assay, Corrected for the salt form follow.
# ASSAY TEXT: Stability indicating HPLC assay and related substances on storage (Example 3)
# Assay type: physicochemical
# MEASUREMENT SETUP: 1 month, 40° C./75% RH
Field: value (include unit after the number)

Sample records with M6G Assay, Corrected for the salt form:
Br.CN1CC[C@]23c4c5ccc(O)c4O[C@H]2[C@@H](O[C@@H]2O[C@H](C(=O)O)[C@@H](O)[C@H](O)[C@H]2O)C=C[C@H]3[C@H]1C5 [Morphine-6-glucuronide hydrobromide]	100.01 % w/w
CN1CCC23c4c5ccc(O)c4OC2C(OC2OC(C(=O)O)C(O)C(O)C2O)C=CC3C1C5.O=P(O)(O)O (stereo not drawn) [Morphine-6-glucuronide phosphate]	111.52 % w/w

# next compound below
Exam item: Returns the measured M6G Assay, Corrected for the salt form for the input compound. Input: CN1CCC23c4c5ccc(O)c4OC2C(OC2OC(C(=O)O)C(O)C(O)C2O)C=CC3C1C5.CN1CCC23c4c5ccc(O)c4OC2C(OC2OC(C(=O)O)C(O)C(O)C2O)C=CC3C1C5.O=S(=O)(O)O (stereo not drawn) [Morphine-6-glucuronide sulphate]
Marked response: 81.50 % w/w
